Biological target: T1, soluble cynomolgus monkey IL-6R (cynomolgus monkey, UniProt A0A2K5WN54 60-396)
T1 construct: extracellular domain; also called scyIL-6R; soluble cynomolgus monkey IL-6 Receptor; not shown: C-terminal His- or Avi-Tag
T1 sequence: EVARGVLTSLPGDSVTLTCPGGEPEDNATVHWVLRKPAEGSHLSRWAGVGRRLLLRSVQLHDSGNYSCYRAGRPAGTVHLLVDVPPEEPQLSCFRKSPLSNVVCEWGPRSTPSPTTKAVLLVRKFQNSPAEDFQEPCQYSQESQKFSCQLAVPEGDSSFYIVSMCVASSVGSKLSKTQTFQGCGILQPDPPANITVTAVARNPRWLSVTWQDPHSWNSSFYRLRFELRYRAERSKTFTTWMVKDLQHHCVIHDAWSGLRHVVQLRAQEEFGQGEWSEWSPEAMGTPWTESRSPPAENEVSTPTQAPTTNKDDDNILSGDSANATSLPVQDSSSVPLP
Test: SPR (Biacore 2000), mAb captured on anti-human IgG Fc, analyte in solution, 25 C, 1:1 Langmuir
PARAMETER: koff (s⁻¹)
Please reply with the bare figure in s⁻¹ and do not write the unit itself.

Request: Consider the binder NI-1201-B antibody (antibody, V domains shown) VH: QVQLVQSGAEVKKPGSSVKVSCKASGGTFSSYAISWVRQAPGQGLEWMGGIIPLFDTTKYAQKFQGRVTITADESTSTAYMELSSLRSEDTAVYYCARDRDILTDYYPLGGMDVWGQGTTVTVSS VL: AIQLTQSPSSLSASVGDRVTITCRASQGISSVLAWYQQKPGKAPKLLIYDASSLESGVPSRFSGSGSGTDFTLTISSLQPEDFATYYCQQSNSYPLTFGGGTKVEIKR and give its measured koff.
Response: 0.000207
